The following molecules each carry a recorded log10 of IC50 for GST-tagged SIK3 (Homo sapiens (Human)).
A value of 2 here means IC50 of 100 in nM, since values are log10.

- Molecule: "COc1cc(-c2c3ccc(OCCN4CCOCC4)cc3nn2C)cc(OC(F)F)c1C(=O)NC1CC1 [Comparative Example 7, reference compound]"
  log10 of IC50: 2.30
- Molecule: "COc1cc(-c2c3c(C#N)cc(-c4cnn(CC5CCCS5(=O)=O)c4)cc3nn2C)cc(OC(F)F)c1C(=O)NCC1(F)CC1 (stereo not drawn)"
  log10 of IC50: 1.22
- Molecule: "COc1cc(-c2c3c(OC)cc(-c4cnn(C)c4)cc3nn2C)cc(OC(F)F)c1C(=O)N[C@@H]1CC1(F)F"
  log10 of IC50: 0.97
- Molecule: "CCn1cc(-c2cc(C#N)c3c(-c4cc(OC)c(C(N)=O)c(OC(F)F)c4)n(C)nc3c2)cn1"
  log10 of IC50: 0.43

// switching to the query molecule
Report log10 of IC50 for CCCn1cc(-c2cc(C#N)c3c(-c4cc(OC)c5c(c4)[C@@H](C)CNC5=O)n(C)nc3c2)cn1 (single isomer, unassigned) please.
0.83

###

The following compounds each carry a recorded IC50 for GST-tagged SIK3 (Homo sapiens (Human)).
Write the answer as a number in nM, unit excluded.

Below, each entry is followed by its recorded IC50 result.
- Compound: "COc1cc(-c2c3c(C#N)cc(-c4cnn(C[C@H](C)O)c4)cc3nn2C)cc(OC(F)F)c1C(N)=O [Example 125]"
  Test System: "GST-tagged SIK3 (Homo sapiens (Human))"
  Test Value: 2.9
- Compound: "COc1cc(-c2c3c(C#N)cc(-c4cnn(C)c4)cc3nn2C)cc(OC(F)F)c1C(=O)N1CC(O)(C(F)F)C1 [Example 25]"
  Test System: "GST-tagged SIK3 (Homo sapiens (Human))"
  Test Value: 12.8
- Compound: "CCn1cc(-c2cc(C#N)c3c(-c4cc(OC)c(C(=O)N5CC(O)(C(F)(F)F)C5)c(OC(F)F)c4)n(C)nc3c2)cn1 [Example 15]"
  Test System: "GST-tagged SIK3 (Homo sapiens (Human))"
  Test Value: 1.4
- Compound: "COc1cc(-c2c3c(OCc4cncc(F)c4)cc(-c4cnn(C)c4)cc3nn2C)cc(OC(F)F)c1C(=O)N1CC(O)(C(F)(F)F)C1 [Example 103]"
  Test System: "GST-tagged SIK3 (Homo sapiens (Human))"
  Test Value: 4.8
- Compound: "COc1cc(-c2c3c(OC)cc(-c4cnn(C)c4)cc3nn2C)cc(OC(F)F)c1C(=O)N1CC(O)(C(F)F)C1 [Example 37]"
  Test System: "GST-tagged SIK3 (Homo sapiens (Human))"
  Test Value: 12.9
- Compound: "COc1cc(-c2c3c(OC(F)F)cc(-c4cn(C)nn4)cc3nn2C)cc(OC(F)F)c1C(=O)N1CC(O)(C(F)F)C1 [Example 63]"
  Test System: "GST-tagged SIK3 (Homo sapiens (Human))"
  Test Value: 9.7
- Compound: "COc1cc(-c2c3c(OCc4ccnnc4)cc(-c4cnn(C)c4)cc3nn2C)cc(OC(F)F)c1C(=O)N1CC(O)(C(F)(F)F)C1 [Example 51]"
  Test System: "GST-tagged SIK3 (Homo sapiens (Human))"
  Test Value: 14.1
- Compound: "COc1cc(-c2c3c(C#N)cc(-c4cnn(CC5(O)CC5)c4)cc3nn2C)cc(OC(F)F)c1C(=O)NCC1(F)CC1 [Example 83]"
  Test System: "GST-tagged SIK3 (Homo sapiens (Human))"
  Test Value: 10.2
- Compound: "COc1cc(-c2cnn(C)c2)cc2nn(C)c(-c3cc(OC(F)F)c4c(c3)[C@@H](C)CNC4=O)c12 (single isomer, unassigned) [Example 166]"
  Test System: "GST-tagged SIK3 (Homo sapiens (Human))"
  Test Value: 9.6
- Compound: "COCCn1cc(-c2cc(C#N)c3c(-c4cc(OC)c5c(c4)[C@@H](C)CNC5=O)n(C)nc3c2)cn1 (single isomer, unassigned) [Example 127]"
  Test System: "GST-tagged SIK3 (Homo sapiens (Human))"
  Test Value: 7.6

Report IC50 for COc1cc(-c2c3c(C#N)cc(-c4cnn(C)c4)cc3nn2C)cc(OC(F)F)c1C(=O)NCC1(F)CC1 [Example 12] please.
7

Would you mind doing COc1cc(-c2c3c(C#N)cc(-c4cnn(C[C@@H](C)O)c4)cc3nn2C)cc(OC(F)F)c1C(=O)N[C@@H]1CC1(F)F [Example 153] as well?
2.7

Would you mind doing COc1cc(-c2c3c(C#N)cc(-c4cc[nH]n4)cc3nn2C)cc(OC(F)F)c1C(=O)N[C@@H]1C[C@@H]1F [Example 24] as well?
11.8

Would you mind doing COc1cc(-c2c3c(C(F)F)cc(-c4cnn(CC(=O)N(C)C)c4)cc3nn2C)cc(OC(F)F)c1C(=O)N1CC(O)(C(F)(F)F)C1 [Example 60] as well?
4.9

Would you mind doing COc1cc(-c2c3c(OC(C)C)cc(-c4cnn(C)c4)cc3nn2C)cc(OC(F)F)c1C(=O)N1CC(O)(C(F)(F)F)C1 [Example 43] as well?
20
